# Tgt: RAS-binding domain (RBD) of RAF1, RAF1-RBD (52–131) (Homo sapiens)
# Assay Notes: ITC; GMPPNP-bound KRAS
# Condition: domain or fragment
pKd: −log10 of the molar value.
Observation Type: pKd

[[record]]
substance = "KRAS (2–169), GMPPNP-bound (from UniProt P01116-2 2-169)"
observation_type = "pKd"
recorded_measurement = 6.66

